Molecular target: Mucolipin-1 (Homo sapiens)
Test: qHTS for Inhibitors of the Human Mucolipin Transient Receptor Potential 1 (TRPML1)
Settings: TRPML1-inducible cells, Ca2+ dye fluorescence, FDSS; stronger effect = lower value; inhibition of EC80 agonist-evoked calcium signal
About 60 (0.02%) of roughly 390,000 compounds were called active. The entries come from a sample that favours actives as a whole.
parameter measured: activity change, negative = inhibition (%)
Numbers only, in %.

Here is how some compounds turned out for activity change, negative = inhibition.
compound	activity change, negative = inhibition, %
O=C(NCc1ccc(F)cc1)c1ccc2nc(N3CCCCC3)sc2c1	-15.1
COC(=O)CCc1ccccc1S(=O)(=O)N(CCC(=O)OC)Cc1ccccc1	-2.45
C=C1CCN(C(CC(C)C)C(=O)N2CCOCC2)S(=O)(=O)c2ccccc21 (stereo unspecified)	-14.1
COc1ccc(-c2nc3sc(CCNS(=O)(=O)c4ccc(F)c(C)c4)c(C)n3n2)cc1	16.5
CCCSc1ncc(Cl)c(C(=O)Nc2sc3c(c2C(=O)NCCOC)CCCC3)n1	20.3

Kindly consider the entry below.
Ask: Entry `CCN(Cc1ccccc1)S(=O)(=O)c1ccc2c(c1)CCCN2C(C)=O` : reported activity change, negative = inhibition = ?
Result: -2.82

---

Target: Mucolipin-1 (Homo sapiens) (UniProt Q9GZU1)
Sequence (Q9GZU1 whole entry, looked up): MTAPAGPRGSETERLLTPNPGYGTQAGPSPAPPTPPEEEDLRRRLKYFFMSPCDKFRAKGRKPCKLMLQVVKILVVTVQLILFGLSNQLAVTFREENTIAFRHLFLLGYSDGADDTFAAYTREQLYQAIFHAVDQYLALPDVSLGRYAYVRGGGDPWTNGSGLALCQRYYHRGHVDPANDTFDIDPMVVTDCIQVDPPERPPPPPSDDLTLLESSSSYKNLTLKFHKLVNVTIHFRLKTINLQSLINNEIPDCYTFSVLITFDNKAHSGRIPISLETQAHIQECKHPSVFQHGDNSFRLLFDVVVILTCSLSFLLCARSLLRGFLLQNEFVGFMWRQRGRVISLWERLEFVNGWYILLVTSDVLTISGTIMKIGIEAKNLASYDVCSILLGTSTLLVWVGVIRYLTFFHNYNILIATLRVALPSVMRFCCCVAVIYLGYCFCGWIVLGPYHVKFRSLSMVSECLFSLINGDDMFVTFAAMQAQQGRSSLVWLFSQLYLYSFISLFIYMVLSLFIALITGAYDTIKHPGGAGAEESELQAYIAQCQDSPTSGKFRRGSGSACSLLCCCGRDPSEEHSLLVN
Test: qHTS for Inhibitors of the Human Mucolipin Transient Receptor Potential 1 (TRPML1);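 further: stimulus is agonist 54-4 at its EC80 concentration; on the % scale 0 is the no-effect control and ±100 the full control effect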
Conditions: TRPML1-inducible cells, Ca2+ dye fluorescence, FDSS; stronger effect = lower value; inhibition of EC80 agonist-evoked calcium signal
The whole screen tested about 390,000 compounds, of which about 60 (0.02%) were called active. This is one part of a sample in which actives are shown more often than they occur.
Exercise: for every item that follows, state its recorded activity change, negative = inhibition.
One number for each entry, in %.

molecule	activity change, negative = inhibition / %
Cc1c(NC(=O)C(C)(C)C)cccc1-c1nc2ccccc2s1	-0.118

Parameters: items (list). Returns: activity change, negative = inhibition for each item.
1. CCC(=O)N1CCc2cc(Br)cc(S(=O)(=O)CCC(=O)N3CCN(c4ccc(F)cc4)CC3)c21
2. Cn1c(=O)c2c(nc(SCC(=O)Nc3ccc(F)cc3)n2Cc2ccc(Cl)cc2)n(C)c1=O
3. COC(=O)CC1Oc2ccccc2-n2cc(-c3ccccc3)nc21 (stereo unspecified)
4. COc1ccc(Cl)cc1S(=O)(=O)Nc1cccc(C(=O)O)c1
5. COc1ccc(S(=O)(=O)c2c(Nc3cccc(Cl)c3)sc(C(=O)c3ccccc3)c2N)cc1
6. CCc1ccc(S(=O)(=O)Nc2cc3c(C(=O)OCc4ccccc4)c(C)oc3c3ccccc23)cc1

Result:
1: -21.4; 2: 3.84; 3: 4.04; 4: -0.499; 5: 17; 6: 28.4

// for each molecule in input: emit activity change, negative = inhibition
1. CCOC(=O)CSC1=Nc2ccccc2C2=NC(CCC(=O)NCc3ccc(F)cc3)C(=O)N12 (stereo unspecified)
2. Cc1cccc(C(=O)N2c3nc(-c4ccco4)nn3C3(CCCCC3)[C@@H]3CCCC[C@@H]32)c1
3. CCc1nnc(SCc2nc(-c3cccc(C)c3)oc2C)c2cc3sc(C)cc3n12
4. Cc1ccc(NC(=O)Cc2ccc(NC(=O)N3CCCCc4ccccc43)cc2)cc1
5. Cc1ccc(Cl)cc1NC(=O)CSc1nccn1C
6. Cc1cc2c(cc1C)C(c1cccc(OC(C)C)c1)CC(=O)N2 (stereo unspecified)

Result:
[-10.5, -0.973, -4.34, 8.17, 0.294, -6.57]

Can you give me activity change, negative = inhibition for all of these, one by one?
1. CCOC(=O)c1cccc(NS(=O)(=O)c2cn(C)c(C)n2)c1
2. Cc1ccc(Cl)cc1-n1ncc2c(N3CCC(C(N)=O)CC3)ncnc21
3. Cc1ccc(Cl)cc1NC(=O)CSc1nc2ccccc2nc1Cc1ccccc1
4. COc1ccc(N2C(=O)CS(=O)(=O)C23C(=O)N(Cc2ccc(C)cc2)c2ccccc23)cc1Cl (stereo unspecified)
5. COc1ccc2ncc3c(-c4ccc(C)c(C)c4)nn(CC(=O)NC4CCCC4)c3c2c1
6. CCN(CC)CCNC(=O)c1cc2c(=O)oc3ccc(C)cc3c2s1
7. COC(=O)c1cccc(NS(C)(=O)=O)c1
8. CC(=O)Nc1ccc(NC(=O)C2CCCN(S(=O)(=O)c3ccc4c(c3)CCCC(=O)N4)C2)cc1 (stereo unspecified)

Result:
9.58
0.447
5.62
40.4
6.38
-8.55
-60.5
-7.84

---

Biological target: Mucolipin-1 (Homo sapiens)
Assay: qHTS for Inhibitors of the Human Mucolipin Transient Receptor Potential 1 (TRPML1);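 further: stimulus is agonist 54-4 at its EC80 concentration; on the % scale 0 is the no-effect control and ±100 the full control effect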
Settings: TRPML1-inducible cells, Ca2+ dye fluorescence, FDSS; stronger effect = lower value; inhibition of EC80 agonist-evoked calcium signal
About 60 (0.02%) of roughly 390,000 compounds were called active. Shown is part of a subset that was picked to be rich in actives.
parameter measured: activity change, negative = inhibition (%)
Numbers only, in %.

compound	parameter measured	unit symbol	measured
Cn1c(=O)c2sccc2n2c(CCC(=O)NCc3ccccc3Cl)nnc12	activity change, negative = inhibition	%	2.41
Cc1ccc(Cn2cnc3c(cnn3C(C)(C)C)c2=O)c(F)c1	activity change, negative = inhibition	%	38.8
O=C(Nc1ccc2c(c1)OCO2)c1cc(-c2cccc(Cl)c2)on1	activity change, negative = inhibition	%	1.26
Cc1c(NS(=O)(=O)c2ccc(Cl)cc2)c(=O)n(-c2ccccc2)n1C	activity change, negative = inhibition	%	-2.41
CCc1cc2c(-c3ccccc3)cc(=O)oc2c2c1OCN(Cc1ccc(C)cc1)C2	activity change, negative = inhibition	%	-21.9

Would you mind listing activity change, negative = inhibition for each of the following compounds?
1. Cc1ccc(Nc2nc(N)nc(CN3CCN(Cc4ccccc4)CC3)n2)cc1Cl
2. COc1cc(OC)c2c(c1C(CCN1CCCCC1)c1ccc(N(C)C)cc1)OC(=O)CC2c1ccc(N(C)C)cc1 (stereo unspecified)
3. COc1cc(NC(=O)c2noc3c2CSc2ccccc2-3)cc(OC)c1OC

Result:
1: -62.2; 2: -9.58; 3: 8.19

---

Target: Mucolipin-1 (Homo sapiens) (UniProt Q9GZU1)
Test: qHTS for Inhibitors of the Human Mucolipin Transient Receptor Potential 1 (TRPML1);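 further: stimulus is agonist 54-4 at its EC80 concentration; on the % scale 0 is the no-effect control and ±100 the full control effect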
Conditions: TRPML1-inducible cells, Ca2+ dye fluorescence, FDSS; stronger effect = lower value; inhibition of EC80 agonist-evoked calcium signal
Text: Mutations of human Mucolipin transient receptor potential 1 (TRPML1) cause type IV mucolipidosis (ML4), a devastating neurodegenerative disease in young children. […] Currently, there is no treatment for ML4. […] TRPML1-DL cells are dissociated from flasks, counted and, brought up to a density of 500,000 cells per mL of media containing a 1X Tet inducer. […]
The whole screen tested about 390,000 compounds, of which about 60 (0.02%) were called active. The full list was thinned out, with actives kept by preference.
parameter measured: activity change, negative = inhibition (%)
Give bare numbers, in %.

Consider the following illustrative entries.
molecule	unit symbol	activity change, negative = inhibition
CCOc1ccc(S(=O)(=O)Nc2ccc3oc4c(c3c2)CC(C)CC4)cc1 (stereo not given)	%	2.72
O=C(COc1ccccc1)NCc1ccc2c(c1)CCN2C(=O)c1ccc(F)cc1	%	25.6
Cc1ccc(NC(=O)CSc2nc3c([nH]c4ccccc43)c(=O)n2-c2ccccc2)cc1Cl	%	-8.82
CCn1c(C(=O)Nc2cc(Cl)ccc2C)cc2sc(Cl)cc21	%	16.9
COc1ccc(CCC(=O)NCc2ccc3c(c2)CCN3C(=O)c2ccc(F)cc2)cc1	%	-24.8

Batch request: activity change, negative = inhibition per item, same order as input.
1. COc1ccc(C2/C=C\CN(Cc3ccco3)C(C)C(=O)N2Cc2ccc(F)cc2)cc1 (stereo not given)
2. Cc1ccc2c(=O)c(C(=O)c3ccc(F)cc3)cn(CC(=O)NC3CCCCC3)c2n1
3. COc1ccc(S(=O)(=O)n2nc(C)c(S(=O)(=O)N3CCCCCC3)c2C)cc1
4. CCN(CC)CCNC(=O)Cn1ncc2c3ccccc3n(Cc3ccccc3C)c2c1=O
5. COc1ccc(NC(=O)NC(C)c2c(-n3cccc3)sc(C)c2C)cc1OC (stereo not given)

Result:
1. 19.9
2. -15.9
3. -9.9
4. 1.87
5. 12.5

---

Target: Mucolipin-1 (Homo sapiens) (UniProt Q9GZU1)
Test: qHTS for Inhibitors of the Human Mucolipin Transient Receptor Potential 1 (TRPML1);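 further: stimulus is agonist 54-4 at its EC80 concentration; on the % scale 0 is the no-effect control and ±100 the full control effect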
Details: TRPML1-inducible cells, Ca2+ dye fluorescence, FDSS; stronger effect = lower value; inhibition of EC80 agonist-evoked calcium signal
Hit rate of the full screen: of about 390,000 compounds, about 60 (0.02%) were called active. Many of the other results were omitted from the sample, so actives are more common in it than they were.
parameter measured: activity change, negative = inhibition (%)
One number for each entry, in %.

// known answers, use as guide
molecule	unit symbol	activity change, negative = inhibition
Cc1ccc(N2CC(c3nnc(Cc4ccccc4Cl)o3)CC2=O)cc1 (stereo not drawn)	%	-9.51
CC(=O)N1CCCc2cc(S(=O)(=O)N3CCC(C(=O)NCc4ccc(C)cc4)CC3)ccc21	%	23
CCOC(=O)C1CCN(C(c2ccc(F)cc2)c2sc3nc(-c4ccco4)nn3c2O)CC1 (stereo not drawn)	%	-5.17
C=C1CCN(Cc2ccc(OC)cc2)S(=O)(=O)c2ccccc21	%	57
CSc1nc(=O)c2c(n1C)NC(=O)CC2c1ccccc1OC(C)C (stereo not drawn)	%	-8.74
O=C(Nc1nc2c(s1)CCCC2)c1ccccc1F	%	7.29

Provide activity change, negative = inhibition for all items below, preserving their order.
1. CC(C)c1ccc(NC(=O)c2ccc3c(O)c(S(=O)(=O)c4ccccc4)c(=O)[nH]c3c2)cc1
2. CC(=O)N1CCCc2cc(S(=O)(=O)Nc3ccc(Cl)cc3F)ccc21
3. COc1cccc2cc(-c3nc(Cl)c4c5c(sc4n3)CC(C)CC5)c(=O)oc12 (stereo not drawn)
4. Cc1cccc(N2CCN(C(=O)c3cnc(N4CCCC4)nc3C)CC2)c1C
5. COC(=O)c1scc(-c2ccc(C)cc2)c1S(=O)(=O)Nc1cc(Cl)c(OC)cc1OC
6. C#CC(C)(CC)NC(=O)Cn1nnc(-c2ccc(OCc3c(F)cccc3Cl)cc2)n1 (stereo not drawn)
7. O=C(NCCS(=O)(=O)N1CCN(c2ccc(F)cc2)CC1)c1ccccc1Br

Result:
1. 8.74
2. 0.189
3. -7.72
4. 12.6
5. 37.6
6. -6.13
7. -27.6

Where these numbers come from: PubChem BioAssay AID624415
